From: patent US20260355168A1

Tested on: LN229 cells
Experiment: LN229 glioma sphere formation and growth assay
Type: cell-based, human
Settings: 100 μM; day 1; in words
Experimental: FIGS. 5(A-E) illustrate a histogram and images showing the results of the LN229 sphere formation and growth assays. […] On day 1, sphere footprint areas were determined and normalized to the average footprint area of the unblinded vehicle-treated controls. […] On day 7, the changes in sphere footprint areas were calculated and normalized to the average size change of the unblinded vehicle-treated controls. […]
PROPERTY_MEASURED: Effect on LN229 sphere formation

CC(C)COc1ccc(C(=O)N2CCNC(=O)C2CC(=O)OC2CCCCC2)cc1 (stereo not drawn)    delayed sphere formation
CCC1(CC)NC(=O)N(CC(=O)Nc2ccc(Oc3ccccc3)cc2)C1=O    delayed sphere formation
